- Tested on: K. pneumoniae (ATCC 13883)
- Type: cell-based, Klebsiella pneumoniae
- CONDITION_NOTES: K. pneumoniae (ATCC13883); 5×10^5 CFU.ml^−1, Mueller-Hinton Broth, 37°C, 24 h, OD 595 nm, biological triplicates
Where a SMILES comes first, the peptide text is derived from it.
REPORTED_ENDPOINT: Minimum inhibitory concentration (MIC) (µM)
All answers are understood in µM, so give the number only.

Task: What Minimum inhibitory concentration (MIC) value was documented for this compound, CC(C)C[C@H](NC(=O)[C@H](C)NC(=O)CNC(=O)[C@H](Cc1ccccc1)NC(=O)CN)C(=O)N[C@@H](Cc1ccccc1)C(=O)N[C@@H](CCCCN)C(=O)N[C@@H](Cc1ccccc1)C(=O)N[C@@H](CC(C)C)C(=O)N[C@@H](C)C(=O)N[C@@H](CCCCN)C(=O)N[C@@H](C)C(=O)N[C@H](C(=O)N[C@@H](C)C(=O)N[C@@H](CCCCN)C(=O)N[C@@H](C)C(=O)N[C@H](C(=O)N[C@@H](C)C(N)=O)C(C)C)C(C)C [Peptide R6b] (H-GFGALFKFLAKAVAKAVA-NH2) ?
Result: 35.4

====

- Test system: S. aureus (ATCC 25923)
- Assay type: cell-based, Staphylococcus aureus
- CONDITION_NOTES: S. aureus (ATCC25923); 5×10^5 CFU.ml^−1, Mueller-Hinton Broth, 37°C, 24 h, OD 595 nm, biological triplicates
- Experimental: Susceptibility tests were performed using clinical isolates of Klebsiella pneumoniae carbapenemase (KPC 1410503) and methicillin-resistant S. aureus (MRSA 3730592). Tests were also performed with ATCC (American Type Culture Collection) isolates of K. pneumoniae (ATCC 13883) and S. aureus (ATCC 25923). […]
Where a SMILES comes first, the peptide text is derived from it.
REPORTED_ENDPOINT: Minimum inhibitory concentration (MIC) (µM)
All answers are understood in µM, so give the number only.

Task: What Minimum inhibitory concentration (MIC) value was documented for this molecule, CC(C)C[C@H](NC(=O)[C@H](CCCNC(=N)N)NC(=O)[C@H](CCCCN)NC(=O)[C@H](Cc1ccccc1)NC(=O)[C@H](CC(C)C)NC(=O)[C@H](CCCCN)NC(=O)CNC(=O)[C@H](Cc1ccccc1)NC(=O)CN)C(=O)N[C@@H](C)C(=O)N[C@@H](CCCCN)C(=O)N[C@@H](C)C(=O)N[C@H](C(=O)N[C@@H](C)C(=O)N[C@@H](CCCCN)C(=O)N[C@@H](C)C(=O)N[C@H](C(=O)N[C@@H](C)C(N)=O)C(C)C)C(C)C [Peptide R10b] (H-GFGKLFKRLAKAVAKAVA-NH2) ?
Result: 8.53

Task: What do we get for CC(C)C[C@H](NC(=O)[C@H](C)NC(=O)CNC(=O)[C@H](Cc1ccccc1)NC(=O)CN)C(=O)N[C@@H](Cc1ccccc1)C(=O)N[C@@H](CCCCN)C(=O)N[C@@H](Cc1ccccc1)C(=O)N[C@@H](CC(C)C)C(=O)N[C@@H](C)C(=O)N[C@@H](CCCCN)C(=O)N[C@@H](C)C(=O)N[C@H](C(=O)N[C@@H](C)C(=O)N[C@@H](CCCCN)C(=O)N[C@@H](C)C(=O)N[C@H](C(=O)N[C@@H](C)C(N)=O)C(C)C)C(C)C [Peptide R6b] (H-GFGALFKFLAKAVAKAVA-NH2) ?
Result: 17.7

Task: What do we get for CC(C)C[C@H](NC(=O)[C@H](C)NC(=O)CNC(=O)[C@H](Cc1ccccc1)NC(=O)CN)C(=O)N[C@@H](Cc1ccccc1)C(=O)N[C@@H](CCCCN)C(=O)N[C@@H](Cc1ccccc1)C(=O)N[C@@H](CC(C)C)C(=O)N[C@@H](C)C(=O)N[C@@H](CCCCN)C(=O)N[C@@H](CCCCN)C(=O)N[C@H](C(=O)N[C@@H](C)C(=O)N[C@@H](CCCCN)C(=O)N[C@@H](C)C(=O)N[C@H](C(=O)N[C@@H](C)C(N)=O)C(C)C)C(C)C [Peptide R2b] (H-GFGALFKFLAKKVAKAVA-NH2) ?
Result: 17.15
